Measured inhibition, listed per entry for reference.
# assay: clotrimazole potentiators killing Candida biofilms, primary screen, with clotrimazole, Alamar Blue (AID 834);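 note: preformed 24 hr biofilms exposed to compound for 48 hr; 0% = biofilm without compound and 100% = blank killed by clotrimazole plus chlorhexidine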
# condition: C. albicans biofilm + clotrimazole, at 6 µM, stronger effect = higher value
Hit rate of the full screen: of about 85,000 compounds, about 120 (0.14%) were called active. Many of the other results were omitted from the sample, so actives are more common in it than they were.
measured_metric: inhibition (%)

| compound | result |
| --- | --- |
| CCNc1nc(NC(C)C)nc(OCCOC(=O)c2ccccc2)n1 | 2.57 |
| CC1(C)NC(=O)N(CCCCSc2ccc(Cl)cc2)C1=O | 4.05 |
| C=CCN(C(=O)Cn1ncc2c1-c1cc(C)ccc1OC2)c1ccccc1 | 3.48 |
| CC1CCc2c(nc3ncnn3c2Nc2ccc(OC(F)(F)F)cc2)C1 (stereo unspecified) | 2.5 |
| O=C(NCC1CCCO1)c1ccc2ccccc2n1 (stereo unspecified) | 2.84 |
| O=C(Nc1cccc(NC(=O)c2ccco2)c1)c1cnccn1 | 4.07 |
| CCn1c2ccccc2c2cc(NC(=S)N3CCOCC3)ccc21 | 5.56 |
| CC(C)Oc1ccc(C(=O)NC(C)(C)CO)cc1 | 0.21 |
| Cc1ccc(OC(=O)c2ccccc2C(=O)OCC(F)(F)C(F)F)cc1 | -0.38 |
| CCCCCCNCCn1cnc2c(N)ncnc21 | 8.75 |
| CC(C)(C)C1CCc2c(sc3nc(SCC(N)=O)nc(N)c23)C1 (stereo unspecified) | 9.53 |
